Cited source for all entries: paper PMC10058761

Listed here: items and their measured pKd.
EXPERIMENTAL_TARGET: human FABP3 (Homo sapiens, UniProt P05413)
Construct: His-tag (N); TEV cleavage site (N); made in house; host or cells: E. coli BL21(DE3)
Sequence (P05413 whole entry): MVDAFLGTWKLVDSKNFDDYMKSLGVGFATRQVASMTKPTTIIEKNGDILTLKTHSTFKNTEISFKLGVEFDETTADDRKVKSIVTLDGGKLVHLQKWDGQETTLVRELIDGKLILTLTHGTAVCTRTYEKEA
ASSAY_TEXT: ITC assay of ligand binding to apo-FABP3
RUN_CONDITIONS: KPi pH 7.6, 25 °C, without TX
Description: ITC experiments were carried out on the MicroCal™ iTC200 instrument (Malvern Instruments Ltd., Malvern, UK). Experiments were performed in KPi buffer without and with 0.1% (v/v) TX supplement. […] Experiments for the determination of the ΔCp were performed at three different temperatures: 16, 25, and 37 °C. […] Every titration started with a small 0.3 μL injection introduced to compensate for the diffusion effects. […]
Hey, just a heads up that pKd is the negative log base 10 of the concentration in molar.

// known answers, use as guide
1) CC/C=C\C/C=C\C/C=C\C/C=C\C/C=C\CCCC(=O)O[C@H](CC(=O)O)C[N+](C)(C)C; 4.83
2) CCCCCCCCCCCCCCCC(=O)SCCNC(=O)CCNC(=O)[C@H](O)C(C)(C)COP(=O)(O)OP(=O)(O)OC[C@H]1O[C@@H](n2cnc3c(N)ncnc32)[C@H](O)[C@@H]1OP(=O)(O)O; 5.05
3) CCCCCCCC/C=C\CCCCCCCC(=O)O[C@H](CC(=O)O)C[N+](C)(C)C.[Cl-]; 5.66

Could you now consider this next molecule?
Entry CCCCCCCC(=O)O [C8:0, caprylate] ; pKd = 5.73
